Assay name: Kinetic solubility determination in PBS
Assay type: physicochemical
Condition details: phosphate buffered saline (PBS 1×), 21 °C, pH 7.4, aqueous buffer, kinetic from dmso stock, PBS 1X pH 7.4, 2.0% DMSO, 24 hour incubation at ambient temperature, read-out: Solubility in aqueous PBS Buffer (1X, pH 7.4), ug/mL
Recorded solubility at 24 h values for a group of compounds are listed next.
Outcome measure: solubility at 24 h

Compound: CC[C@H](C)[C@H](NC(=O)Cc1ccccc1)C(=O)N[C@@H](CCC(=O)O)C(=O)N1c2ccccc2C[C@H]1C(=O)NCc1nn[nH]n1
Result: > 454 µg/mL
--
Compound: CC[C@H](C)[C@H](NC(=O)C1CC1C(=O)O)C(=O)NCC(=O)N1c2ccccc2C[C@H]1C(=O)NCc1nn[nH]n1 (single isomer, unassigned)
Result: > 395 µg/mL
--
Compound: CC[C@H](C)[C@H](NC(=O)Cc1nn[nH]n1)C(=O)NCC(=O)N1c2ccccc2C[C@H]1C(=O)NCc1nn[nH]n1
Result: > 393 µg/mL
